# TESTED_TARGET: hDAGL-α (Homo sapiens, UniProt Q9Y4D2)
# Construct: expressed in transfected cells; host or cells: HEK293T (transient), membrane preparation
# Sequence (Q9Y4D2 whole entry): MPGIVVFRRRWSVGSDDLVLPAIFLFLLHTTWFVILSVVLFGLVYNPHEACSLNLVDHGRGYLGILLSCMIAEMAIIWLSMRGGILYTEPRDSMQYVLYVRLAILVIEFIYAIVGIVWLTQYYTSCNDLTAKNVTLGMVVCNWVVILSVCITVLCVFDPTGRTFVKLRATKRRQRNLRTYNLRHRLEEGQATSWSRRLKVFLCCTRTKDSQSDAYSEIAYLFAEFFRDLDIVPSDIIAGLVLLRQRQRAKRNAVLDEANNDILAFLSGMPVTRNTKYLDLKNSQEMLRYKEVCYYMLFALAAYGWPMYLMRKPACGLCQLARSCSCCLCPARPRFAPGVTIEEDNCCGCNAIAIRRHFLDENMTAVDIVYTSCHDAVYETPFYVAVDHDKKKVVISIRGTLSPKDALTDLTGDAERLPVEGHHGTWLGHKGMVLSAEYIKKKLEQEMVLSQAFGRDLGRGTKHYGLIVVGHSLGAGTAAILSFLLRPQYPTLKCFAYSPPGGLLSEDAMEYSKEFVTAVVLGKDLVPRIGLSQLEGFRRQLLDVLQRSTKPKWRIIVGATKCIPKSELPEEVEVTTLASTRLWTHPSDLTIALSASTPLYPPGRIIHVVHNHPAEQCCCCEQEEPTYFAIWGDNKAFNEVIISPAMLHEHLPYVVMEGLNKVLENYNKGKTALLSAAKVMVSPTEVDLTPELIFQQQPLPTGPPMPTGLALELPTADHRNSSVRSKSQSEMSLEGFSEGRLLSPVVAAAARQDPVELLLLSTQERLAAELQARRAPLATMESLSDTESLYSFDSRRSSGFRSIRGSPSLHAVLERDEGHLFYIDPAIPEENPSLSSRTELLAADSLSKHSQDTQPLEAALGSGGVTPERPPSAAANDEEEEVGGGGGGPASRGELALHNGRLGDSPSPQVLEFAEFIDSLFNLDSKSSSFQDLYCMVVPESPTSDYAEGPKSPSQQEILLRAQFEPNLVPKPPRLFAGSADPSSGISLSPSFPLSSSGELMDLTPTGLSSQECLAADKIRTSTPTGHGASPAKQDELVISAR
# ASSAY_METHOD_TEXT: Biochemical DAGLα activity assay
# COND: 10 µM
MEASUREMENT_NAME: DAGL % inhibition at 10 µM ± SD (%)
Answers are plain numbers, in %.

Illustrative cases are given below, each with its answer.
1. COc1ccc(C(=O)c2c(C)n(CCN3CCOCC3)c3cc(I)ccc23)cc1 [AM630]	6
2. CCCC(C)(C)c1ccc2c(c1)OC(C)(C)[C@@H]1CC=C(C)C[C@@H]21 [JWH133]	30
3. CCCCCc1cc(O)c2c(c1)OC(C)(C)[C@@H]1CCC(C)=C[C@@H]21 [Δ9-THC, Δ^9-tetrahydrocannabinol]	-9
4. CN1CCCC[C@@H]1Cn1cc(C(=O)c2cc([N+](=O)[O-])ccc2I)c2ccccc21 [(R)-AM1241]	10
5. CN1CCCCC1Cn1cc(C(=O)c2cc([N+](=O)[O-])ccc2I)c2ccccc21 (racemic) [(rac)-AM1241]	3
6. Cc1c(C(=O)NN2CCCCC2)nn(-c2ccc(Cl)cc2Cl)c1-c1ccc(I)cc1 [AM251]	17
7. Cc1c(C(=O)c2cccc3ccccc23)c2cccc3c2n1[C@H](CN1CCOCC1)CO3 [WIN55212-2]	-9
8. CCCCCCC(C)(C)c1cc(OC)c(C2=C[C@H]3CC[C@]2(CO)C3(C)C)c(OC)c1 [HU910]	36
9. CCCn1c(C)c(C(=O)c2cccc3ccccc23)c2ccccc21 [JWH015]	-8

// below: DAGL % inhibition at 10 µM ± SD requested for another compound
Recorded DAGL % inhibition at 10 µM ± SD for CN1CCCC[C@H]1Cn1cc(C(=O)c2cc([N+](=O)[O-])ccc2I)c2ccccc21 [(S)-AM1241] , please? 9
